TESTED_TARGET: Peptide 5: Biotin-…-[Tyr(PC)]-acid
Sequence (peptide, as listed by the source): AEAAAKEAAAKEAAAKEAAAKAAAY
PROTOCOL_SUMMARY: scFv ELISA
OD450 values, listed per item
ASSAY_READOUT: OD450 (OD450)

BINDER	RESULT_UNITS	READOUT_NUMBER
PcOxP_DB04_G06 (scFv, V domains shown, scFv in periplasmic extract) VH: EVQLLESGGGLVQPGGSLRLSCAASGFTFSDFYMEWVRQAPGKGLEWVAASRWKANDYTTEYADSVKGRFTISRDNSKNTLYLQMNSLRAEDTAVYYCARDYYESSYWYFDVWGQGTLVTVSS VL: DIQMTQSPSSLSASVGDRVTITCTASQSLYSSKHKVHYLAWYQQKPGKAPKLLIYGASNRYIGVPSRFSGSGSGTDFTLTISSLQPEDFATYYCAQFYVYPLTFGGGTKVEIK	OD450	1.12
PcOxP_DB01_D02 (scFv, V domains shown, scFv in periplasmic extract) VH: EVQLLESGGGLVQPGGSLRLSCAASGFEFSDFYMEWVRQAPGKGLEWVAASRGKGNSYTTEYADSVKGRFTISRDNSKNTLYLQMNSLRAEDTAVYYCARDYYGSSYWYFDVWGQGTLVTVSS VL: DIQMTQSPSSLSASVGDRVTITCTASESLYSSKHKVHYLAWYQQKPGKAPKLLIYGASNRYIGVPSRFSGSGSGTDFTLTISSLQPEDFATYYCGQFYSYPLTFGGGTKVEIK	OD450	1.27
PcOxP_DB02_G04 (scFv, V domains shown, scFv in periplasmic extract) VH: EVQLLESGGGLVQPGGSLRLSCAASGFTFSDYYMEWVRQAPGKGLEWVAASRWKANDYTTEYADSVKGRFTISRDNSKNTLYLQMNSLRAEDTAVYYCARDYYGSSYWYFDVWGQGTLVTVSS VL: DIVMTQSPDSLAVSLGERATINCKASQSVLYSKNKKHYLAWYQQKPGQPPKLLIYGASNRQIGVPDRFSGSGSGTDFTLTISSLQAEDVAVYYCAQFYVYPLTFGGGTKVEIK	OD450	0.7
PcOxP_DB03_H10 (scFv, V domains shown, scFv in periplasmic extract) VH: EVQLLESGGGLVQPGGSLRLSCAASGFTFDDFYMEWVRQAPGKGLEWVAASRNEANDYTTEYADSVKGRFTISRDNSKNTLYLQMNSLRAEDTAVYYCARDYYGSSYWYFDVWGQGTLVTVSS VL: DIVMTQSPDSLAVSLGERATINCTASESLYSSKHKVHYLAWYQQKPGQPPKLLIYGAGNRYIGVPDRFSGSGSGTDFTLTISSLQAEDVAVYYCAQFYHYPLTFGGGTKVEIK	OD450	0.39
PcOxP_DB04_A04 (scFv, V domains shown, scFv in periplasmic extract) VH: EVQLLESGGGLVQPGGSLRLSCAASGFTFSDFYMEWVRQAPGKGLEWVAASRNKWNDYTTEYADSVKGRFTISRDNSKNTLYLQMNSLRAEDTAVYYCARDYYGSSYWYFDVWGQGTLVTVSS VL: DIVMTQSPDSLAVSLGERATINCTASQSVYSSKNKKHYLAWYQQKPGQPPKLLIYGASNRYIGVPDRFSGSGSGTDFTLTISSLQAEDVAVYYCAQFYRYPLTFGGGTKVEIK	OD450	1.9
PcOxP_DB03_C12 (scFv, V domains shown, scFv in periplasmic extract) VH: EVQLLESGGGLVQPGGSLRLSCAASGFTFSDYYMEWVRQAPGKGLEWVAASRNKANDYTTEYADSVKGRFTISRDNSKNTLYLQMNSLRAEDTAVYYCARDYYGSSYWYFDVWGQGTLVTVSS VL: DIQMTQSPSSLSASVGDRVTITCTASESLYSSKHKVHYLAWYQQKPGKAPKLLIYGASNRYGGVPSRFSGSGSGTDFTLTISSLQPEDFATYYCAQFYSYPLTFGGGTKVEIK	OD450	1.77
PcOxP_DB01_G05 (scFv, V domains shown, scFv in periplasmic extract) VH: EVQLLESGGGLVQPGGSLRLSCAASGFTFSSYYMEWVRQAPGKGLEWVAASRNKANEYTTEYADSVKGRFTISRDNSKNTLYLQMNSLRAEDTAVYYCARDYYGSSYWYFDVWGQGTLVTVSS VL: DIVMTQSPDSLAVSLGERATINCTASESLYSSKHKVHYLAWYQQKPGQPPKLLIYGASNRYIGVPDRFSGSGSGTDFTLTISSLQAEDVAVYYCANFYSYPLTFGGGTKVEIK	OD450	1.24
PcOxP_DB02_D01 (scFv, V domains shown, scFv in periplasmic extract) VH: EVQLLESGGGLVQPGGSLRLSCAASGFGFSDFYMEWVRQAPGKGLEWVAASRHKANDYTTEYADSVKGRFTISRDNSKNTLYLQMNSLRAEDTAVYYCARDYYGSSYWYFDVWGQGTLVTVSS VL: DIQMTQSPSSLSASVGDRVTITCTASESLYSSKHKVHYLAWYQQKPGKAPKLLIYGASNRYIGVPSRFSGSGSGTDFTLTISSLQPEDFATYYCAQFYWYPLTFGGGTKVEIK	OD450	0.35
PcOxP_DB04_C11 (scFv, V domains shown, scFv in periplasmic extract) VH: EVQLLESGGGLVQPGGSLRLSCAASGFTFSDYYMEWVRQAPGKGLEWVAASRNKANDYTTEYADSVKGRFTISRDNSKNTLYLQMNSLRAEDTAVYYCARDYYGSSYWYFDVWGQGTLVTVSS VL: DIVMTQSPDSLAVSLGERATINCTASESLYSSKHKVHYLAWYQQKPGQPPKLLIYGASHRQIGVPDRFSGSGSGTDFTLTISSLQAEDVAVYYCAQFYSYPLTFGGGTKVEIK	OD450	1.34
PcOxP_DB03_A12 (scFv, V domains shown, scFv in periplasmic extract) VH: EVQLLESGGGLVQPGGSLRLSCAASGFTFSDGYMEWVRQAPGKGLEWVAASRNKANDYTTAYADSVKGRFTISRDNSKNTLYLQMNSLRAEDTAVYYCARDYYGSSYWYFDVWGQGTLVTVSS VL: DIVMTQSPDSLAVSLGERATINCTASESLYSSKHKVHYLAWYQQKPGQPPKLLIYGASNRYIGVPDRFSGSGSGTDFTLTISSLQAEDVAVYYCGQFYSYPLTFGGGTKVEIK	OD450	1.67

The origin of these recorded values is patent US20250320312A1.
